test system: HPPD polypeptides (wild-type SEQ ID NO:1 and mutants); conditions: in the presence of Cmpd. 2, 15 μM inhibitor, high substrate concentration; total change in signal normalized to no inhibitor
Observed property: Residual turnover

INSERT INTO results (molecule, observed_property, result) VALUES
  ('24 (protein, mutant HPPD polypeptide) MADLYENPMGLMGFEFIEFASPTPGTLEPIFEIMGFTKVATHRSKNVHLYRQGEINLILNNEPNSIASYFAAEHGPSVCGMAFRVKDSQKAYNRALELGAQPIHIDTGPMELNLPAIKGIGGAPLYLIDRFGEGSSIYDIDFVYLEGVERNPVGAGLKVIDHLTHNVYRGRMVYWANFYEKLFNFREARYFDIKGEYTGLTSKAMSAPDGMIRIPLNEESSKGAGQIEEFLMQFNGEGIQHVAFLTDDLVKTWDALKKIGMRFMTAPPDTYYEMLEGRLPDHGEPVDQLQARGILLDGSSVEGDKRLLLQIFSETLMGPVFFEFIQRKGDDGFGPHSFKVLFESVERDQVRRGVLTAD', 'Residual turnover', 'n.i.');
